# experiment: Effect of sodium chloride on the solubility of Compound A, B and C (aqueous saturated solutions)
# Type: physicochemical
# measurementSetup: aqueous saturated solution with 0.4% NaCl, saline or isotonic, thermodynamic from solid; conc. in solution or supernatant, NaCl 0.4%
assayReadout: solubility (µg/mL)
Please state the figure in µg/mL; there is no need to write the unit.

Observe how each entry below is paired with its result.
>>> valueobserved("CC(=O)Nc1nc(CCc2ccc(NC(=N)N)cc2)c(Cc2ccc(S(C)(=O)=O)cc2)s1 [Compound C]")
1760
>>> valueobserved("CC(=O)Nc1nc(CCc2ccc(NC(=N)N)cc2)cs1 [Compound A]")
1110

# get_value(readout='solubility', item= CC(=O)Nc1nc(CCc2ccc(CON)cc2)cs1 [Compound B] )
1170

----------
# experiment: Effect of the additives on solubility of Compound C (aqueous saturated solution)
# Format: physicochemical
# measurementSetup: aqueous saturated solution, pH 7, water, thermodynamic from solid; saturated solution before adding Mannitol 3.5%; read-out: Conc. of C w/o additive (A)
# Method: To the saturated solution of Compound C prepared in the same manner as test example 1, glycerin in an amount to give 2.5% solution was added and the mixture was stirred. Similarly, mannitol in an amount to give 3.5% solution, boric acid in an amount to give 2% solution, potassium chloride in an amount to give 0.2% solution, disodium hydrogenphosphate in an amount to give 1% and sodium citrate in an amount to give 1% solution were added to the aqueous saturated solution of Compound C respectively. […]
assayReadout: solubility thermodynamic (mg/mL)
Give the number; mg/mL is assumed, so skip it.

Could you tell me which solubility thermodynamic is on file for CC(=O)Nc1nc(CCc2ccc(NC(=N)N)cc2)c(Cc2ccc(S(C)(=O)=O)cc2)s1 [Compound C] ?
11.5

----------
# experiment: Effect of sodium chloride on the solubility of Compound A, B and C (aqueous saturated solutions)
# Type: physicochemical
# measurementSetup: distilled water (injection grade), thermodynamic from solid; aqueous saturated solution in distilled water, NaCl 0%; A about pH 7, B about pH 3 (HCl), C about pH 7 (HCl)
assayReadout: solubility (mg/mL)
Output spec: scalar in mg/mL, unitless text.

Worked examples follow.
>>> valueobserved("CC(=O)Nc1nc(CCc2ccc(CON)cc2)cs1")
1.12
>>> valueobserved("CC(=O)Nc1nc(CCc2ccc(NC(=N)N)cc2)c(Cc2ccc(S(C)(=O)=O)cc2)s1")
10.7

We next turn to a different molecule, shown below.
I'd like to know its solubility. The molecule in question is CC(=O)Nc1nc(CCc2ccc(NC(=N)N)cc2)cs1
3.55
